assay: Coupling of water and castor oil by hydrotropes; assay type: physicochemical; conditions: ratio of water to castor oil 90:10
readout.name: Wt % Hydrotrope required to compatibilize phases (%)

>>> df
                                   molecule  unit  observed
0         COC(C)COC(C)CO (centres unmarked)     %        81
1                                       CCO     %        84
2               COCC(C)O (centres unmarked)     %        83
3      CC1COC(C)(CCCO)O1 (centres unmarked)     %        84
4  CCOC(=O)CCC1(C)OCC(CO)O1 (centres unmarked)     %        85
